Test system: NCI-H460
Assay: relative viability (nuclei count vs DMSO), 5 days (fraction); higher = more cells survive
Conditions: first compound 0.08 µM
measured.metric: relative viability

compound | measured.target | measured.metric | value.reported
Oc1nc(-c2ccc(C(F)(F)F)cc2)nc2c1CSCC2 [XAV939] + Cc1nc(NC(=O)N2CCC[C@H]2C(N)=O)sc1-c1ccnc(C(C)(C)C(F)(F)F)c1 [Alpelisib] (partner 2 µM) | NCI-H460 | relative viability | 0.679
C=C1C(=O)O[C@@H](CCCCCCCC)[C@@H]1C(=O)O [C-75] + CC(=O)Nc1cccc(-n2c(=O)n(C3CC3)c(=O)c3c(Nc4ccc(I)cc4F)n(C)c(=O)c(C)c32)c1 [Trametinib] (partner 0.02 µM) | NCI-H460 | relative viability | 0.215
Oc1nc(-c2ccc(C(F)(F)F)cc2)nc2c1CSCC2 [XAV939] + CC(=O)Nc1cccc(-n2c(=O)n(C3CC3)c(=O)c3c(Nc4ccc(I)cc4F)n(C)c(=O)c(C)c32)c1 [Trametinib] (partner 0.02 µM) | NCI-H460 | relative viability | 0.164
C=C1C(=O)O[C@@H](CCCCCCCC)[C@@H]1C(=O)O [C-75] + O=C(CCCCCCC(=O)Nc1ccccc1)NO [Vorinostat] (partner 1 µM) | NCI-H460 | relative viability | 0.698
C=C1C(=O)O[C@@H](CCCCCCCC)[C@@H]1C(=O)O [C-75] + COc1cccc2cc(-c3nc([C@H]4CC[C@H](C(=O)O)CC4)n4ncnc(N)c34)[nH]c12 [OSI-027] (partner 0.5 µM) | NCI-H460 | relative viability | 0.664

====

Tested on: NCI-H2170
Test: relative viability (nuclei count vs DMSO), 5 days (fraction); higher = more cells survive
Conditions: first compound 0.03162 µM
Friendly reminder: relative viability below 0.6 is T, at or above is F.

compound | label.value
NC(=O)Nc1cc(-c2cccc(F)c2)sc1C(=O)N[C@H]1CCCNC1 [AZD7762] + O=C(CCCCCCC(=O)Nc1ccccc1)NO [Vorinostat] (partner 1 µM) | F
NC(=O)Nc1cc(-c2cccc(F)c2)sc1C(=O)N[C@H]1CCCNC1 [AZD7762] + COc1cc2c(Oc3ccc(NC(=O)C4(C(=O)Nc5ccc(F)cc5)CC4)cc3F)ccnc2cc1OCCCN1CCOCC1 [Foretinib] (partner 0.25 µM) | F
NC(=O)Nc1cc(-c2cccc(F)c2)sc1C(=O)N[C@H]1CCCNC1 [AZD7762] + CS(=O)(=O)CCNCc1ccc(-c2ccc3ncnc(Nc4ccc(OCc5cccc(F)c5)c(Cl)c4)c3c2)o1 [Lapatinib] (partner 2 µM) | T
NC(=O)Nc1cc(-c2cccc(F)c2)sc1C(=O)N[C@H]1CCCNC1 [AZD7762] + Cc1cc(Nc2cc(N3CCN(C)CC3)nc(Sc3ccc(NC(=O)C4CC4)cc3)n2)n[nH]1 [Tozasertib] (partner 0.1 µM) | F
NC(=O)Nc1cc(-c2cccc(F)c2)sc1C(=O)N[C@H]1CCCNC1 [AZD7762] + COc1cccc2cc(-c3nc([C@H]4CC[C@H](C(=O)O)CC4)n4ncnc(N)c34)[nH]c12 [OSI-027] (partner 0.5 µM) | F

====

System: NCI-H647
Test: relative viability (nuclei count vs DMSO), 5 days (fraction); higher = more cells survive
Conditions: first compound 0.01581 µM

molecule | relative viability
CC1(C)CCC(c2ccc(Cl)cc2)=C(CN2CCN(c3ccc(C(=O)NS(=O)(=O)c4ccc(N[C@H](CCN5CCOCC5)CSc5ccccc5)c(S(=O)(=O)C(F)(F)F)c4)cc3)CC2)C1 [Navitoclax] + Cc1nc(Nc2ncc(C(=O)Nc3c(C)cccc3Cl)s2)cc(N2CCN(CCO)CC2)n1 [Dasatinib] (partner 0.075 µM) | 0.192
CC1(C)CCC(c2ccc(Cl)cc2)=C(CN2CCN(c3ccc(C(=O)NS(=O)(=O)c4ccc(N[C@H](CCN5CCOCC5)CSc5ccccc5)c(S(=O)(=O)C(F)(F)F)c4)cc3)CC2)C1 [Navitoclax] + O=C(CCCCCCC(=O)Nc1ccccc1)NO [Vorinostat] (partner 1 µM) | 0.52

====

Test system: NCI-H1395
Experiment: relative viability (nuclei count vs DMSO), 5 days (fraction); higher = more cells survive
Details: first compound 0.05 µM
Friendly reminder: relative viability below 0.7 is Met, at or above is Not met.

molecule | measured.target | label.value
CC1(C)CCC(c2ccc(Cl)cc2)=C(CN2CCN(c3ccc(C(=O)NS(=O)(=O)c4ccc(N[C@H](CCN5CCOCC5)CSc5ccccc5)c(S(=O)(=O)C(F)(F)F)c4)cc3)CC2)C1 [Navitoclax] + COc1cc2c(Oc3ccc(NC(=O)C4(C(=O)Nc5ccc(F)cc5)CC4)cc3F)ccnc2cc1OCCCN1CCOCC1 [Foretinib] (partner 0.25 µM) | NCI-H1395 | Not met
CC1(C)CCC(c2ccc(Cl)cc2)=C(CN2CCN(c3ccc(C(=O)NS(=O)(=O)c4ccc(N[C@H](CCN5CCOCC5)CSc5ccccc5)c(S(=O)(=O)C(F)(F)F)c4)cc3)CC2)C1 [Navitoclax] + Cc1nc(Nc2ncc(C(=O)Nc3c(C)cccc3Cl)s2)cc(N2CCN(CCO)CC2)n1 [Dasatinib] (partner 0.075 µM) | NCI-H1395 | Met
CC1(C)CCC(c2ccc(Cl)cc2)=C(CN2CCN(c3ccc(C(=O)NS(=O)(=O)c4ccc(N[C@H](CCN5CCOCC5)CSc5ccccc5)c(S(=O)(=O)C(F)(F)F)c4)cc3)CC2)C1 [Navitoclax] + COc1cccc2cc(-c3nc([C@H]4CC[C@H](C(=O)O)CC4)n4ncnc(N)c34)[nH]c12 [OSI-027] (partner 0.5 µM) | NCI-H1395 | Met
CC1(C)CCC(c2ccc(Cl)cc2)=C(CN2CCN(c3ccc(C(=O)NS(=O)(=O)c4ccc(N[C@H](CCN5CCOCC5)CSc5ccccc5)c(S(=O)(=O)C(F)(F)F)c4)cc3)CC2)C1 [Navitoclax] + CC(=O)Nc1cccc(-n2c(=O)n(C3CC3)c(=O)c3c(Nc4ccc(I)cc4F)n(C)c(=O)c(C)c32)c1 [Trametinib] (partner 0.02 µM) | NCI-H1395 | Not met

====

Test system: NCI-H1437
Assay: relative viability (nuclei count vs DMSO), 5 days (fraction); higher = more cells survive
Conditions: first compound 2.53 µM
Attribute: relative viability

compound | relative viability
C=C1C(=O)O[C@@H](CCCCCCCC)[C@@H]1C(=O)O [C-75] + Cc1cc(Nc2cc(N3CCN(C)CC3)nc(Sc3ccc(NC(=O)C4CC4)cc3)n2)n[nH]1 [Tozasertib] (partner 0.1 µM) | 0.355
Oc1nc(-c2ccc(C(F)(F)F)cc2)nc2c1CSCC2 [XAV939] + NC(=O)Nc1cc(-c2cccc(F)c2)sc1C(=O)N[C@H]1CCCNC1 [AZD7762] (partner 0.2 µM) | 1.02
C=C1C(=O)O[C@@H](CCCCCCCC)[C@@H]1C(=O)O [C-75] + CS(=O)(=O)N1CCN(Cc2cc3nc(-c4cccc5[nH]ncc45)nc(N4CCOCC4)c3s2)CC1 [Pictilisib] (partner 1 µM) | 0.472
C=C1C(=O)O[C@@H](CCCCCCCC)[C@@H]1C(=O)O [C-75] + N=C(N)NC(=N)NCCc1ccccc1 [Phenformin] (partner 250 µM) | 0.284
Oc1nc(-c2ccc(C(F)(F)F)cc2)nc2c1CSCC2 [XAV939] + C[C@@H](Oc1cc(-c2cnn(C3CCNCC3)c2)cnc1N)c1c(Cl)ccc(F)c1Cl [Crizotinib] (partner 1 µM) | 0.788

====

Test system: RERF-LC-KJ
Assay: relative viability (nuclei count vs DMSO), 5 days (fraction); higher = more cells survive
Details: first compound 1 µM

compound | relative viability
NC(=O)Nc1cc(-c2cccc(F)c2)sc1C(=O)N[C@H]1CCCNC1 [AZD7762] + CCNC(=O)c1noc(-c2cc(C(C)C)c(O)cc2O)c1-c1ccc(CN2CCOCC2)cc1 [Luminespib] (partner 0.01 µM) | 1.02
NC(=O)Nc1cc(-c2cccc(F)c2)sc1C(=O)N[C@H]1CCCNC1 [AZD7762] + C[C@]1(O)C[C@@H](c2nc(-c3ccc4ccc(-c5ccccc5)nc4c3)c3c(N)nccn32)C1 [Linsitinib] (partner 1 µM) | 0.842
NC(=O)Nc1cc(-c2cccc(F)c2)sc1C(=O)N[C@H]1CCCNC1 [AZD7762] + CC(C)C[C@H](NC(=O)[C@H](Cc1ccccc1)NC(=O)c1cnccn1)B(O)O [Bortezomib] (partner 0.002 µM) | 1.14
NC(=O)Nc1cc(-c2cccc(F)c2)sc1C(=O)N[C@H]1CCCNC1 [AZD7762] + COc1cccc2cc(-c3nc([C@H]4CC[C@H](C(=O)O)CC4)n4ncnc(N)c34)[nH]c12 [OSI-027] (partner 0.5 µM) | 0.499
